# Tested on: SNB-19 CNS
# TEST: NCI tumour cell line growth inhibition, 48 h
READOUT: TGI

| MOLECULE | TGI |
| --- | --- |
| O=C1C(Cl)N(c2ccc(Cl)cc2)C1c1c[nH]c2ccccc12 (stereo not drawn) | > 100 µM |
| CNC(=O)N(C)N=NCCCl | > 100 µM |

Ask | Any idea what TGI came out for OCCCCCCCCCCCOc1ccc(C2OCC3(CO2)COC(c2ccc(OCCCCCCCCCCCO)cc2)OC3)cc1 (stereo not drawn) on SNB-19 CNS?
Reply | > 50 µM

Ask | Any idea what TGI came out for CC(=O)c1ccc(NCc2cc(O)ccc2O)cc1 on SNB-19 CNS?
Reply | > 100 µM

Ask | Any idea what TGI came out for Cc1nc2c(-c3cnc(N)nc3)nc(N3CCOCC3)nc2n1C(C)C on SNB-19 CNS?
Reply | > 100 µM

Ask | Any idea what TGI came out for COc1ccc2c3c([nH]c2c1[N+](=O)[O-])C(C)=NCC3 on SNB-19 CNS?
Reply | > 100 µM

Ask | Any idea what TGI came out for COc1cccc(/C=C/c2cc(OC)c(OC)c(OC)c2)c1 on SNB-19 CNS?
Reply | > 100 µM

Where do these numbers come from? They come from PubChem BioAssay (NCI).
